# assayDetails: qHTS Assay for Lipid Storage Modulators in Drosophila S3 Cells
# statedConditions: BODIPY lipid droplet fluorescence, 18-24 h, cells fed with added oleic acid; series mostly up to 46.1 µM
The whole screen tested about 320,000 compounds, of which about 2,100 (0.66%) were called active. Another 53% or so got no clear call; they are omitted. Calls come from the whole dose curve; as a rule, active = well fitted inhibition curve with a large enough effect in the signal ratio, with a control signal flat (not every such curve was filed as active); inconclusive = small, poorly fitted or top-dose-only effect, or effect the other way, or a change in a side signal; inactive = flat fitted curve, though single readings scatter; the % refers to the signal ratio. Many of the other results were omitted from the sample, so actives are more common in it than they were.
Classes used: y = active, n = inactive

compound | className
CN1C2CCC1CC(OC(=O)c1ccc(Cl)cc1)C2 (configuration not stated) | n
CCCCn1c(O)c(C(CC)=Nc2ccc(C(=O)O)cc2)c(=O)[nH]c1=O | n
OC(c1ccccc1)(c1ccccc1)C1CCCN1 (configuration not stated) | n
CC1(O)CCN2C(=O)CCc3cccc1c32 (configuration not stated) | n
O=C(Nc1ccc(Cl)c(Cl)c1)c1ccco1 | y
O=C(O)C(O)(c1ccccc1)C1CCCCC1 (configuration not stated) | n
COc1ccc(CN2C(=O)NC(=O)/C(=C/c3ccc([N+](=O)[O-])s3)C2=O)cc1 | n
COc1ccc(C(=O)OC2C[C@H]3CC[C@H](C2)N3C)cc1OC (some centres not stated) | n
NC(=O)CSc1nnc([C@@H](N)Cc2c[nH]c3ccccc23)o1 | n
O=C(Nc1ccc(Cl)cc1C(=O)c1ccccc1)c1ccco1 | n
O=C1N(c2ccccc2)C(c2cccnc2)N2CCCN12 (configuration not stated) | n
CN1C2CCC1CC(OC(=O)c1cc(Cl)cc(Cl)c1)C2 (configuration not stated) | y

###

Recorded measurements of cell number change, one per entry
# assayDetails: qHTS Assay for Lipid Storage Modulators in Drosophila S3 Cells;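 for cell number change: cells counted by Cell Tracker Red CMTPX staining in the red channel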
# statedConditions: BODIPY lipid droplet fluorescence, 18-24 h, cells fed with added oleic acid; measured here: cell count max response
Hit rate of the full screen: of about 320,000 compounds, about 2,100 (0.66%) were called active. Another 53% or so got no clear call; they are omitted. The sample holds actives, similar compounds and a random draw of the others, so the mix is not that of the screen.
assayMetric: cell number change (%)

compound | assayMetric | displayUnit | assayValue
FC(F)(F)c1ccc(CNCCc2ccc3c(c2)OCO3)cc1 | cell number change | % | 20.8
O=C(c1ccc2c(c1)OCO2)C1CCCN(Cc2ccccn2)C1 (stereo unspecified) | cell number change | % | 1.62
COc1ccccc1C(=O)C1CCCN(Cc2cnc(C)s2)C1 (stereo unspecified) | cell number change | % | 3.73
COc1ccc(CNCCc2c(C)[nH]c3ccc(OC(F)(F)F)cc23)c(OC)c1 | cell number change | % | -24.6
COc1ccc2[nH]c(C)c(CCNCc3cc(OC)c4c(c3)OCO4)c2c1 | cell number change | % | 11.1
CCC12CN3CCN(CC(C3)/C1=N\O)C2 | cell number change | % | -11.3

###

# assayDetails: qHTS Assay for Lipid Storage Modulators in Drosophila S3 Cells
# statedConditions: BODIPY lipid droplet fluorescence, 18-24 h, cells fed with added oleic acid; series mostly up to 46.1 µM
Hit rate of the full screen: of about 320,000 compounds, about 2,100 (0.66%) were called active. Roughly 53% stayed inconclusive and do not appear here. Calls come from the whole dose curve; as a rule, active = well fitted inhibition curve with a large enough effect in the signal ratio, with a control signal flat (not every such curve was filed as active); inconclusive = small, poorly fitted or top-dose-only effect, or effect the other way, or a change in a side signal; inactive = flat fitted curve, though single readings scatter; the % refers to the signal ratio. Many of the other results were omitted from the sample, so actives are more common in it than they were.
Classes used: label 1 = active, label 0 = inactive

molecule | className
O=C(Nc1ccc(OC(=O)N2CCCC2)cc1)N1CCOCC1 | label 0
CN1CCN(CC(=O)Nc2ccc(Cl)cc2C(=O)c2ccccc2)CC1 | label 0
O=C(COc1ccccc1Cl)N1CCCC(N2CCN(c3ccc(F)cc3)CC2)C1 (stereo unspecified) | label 0
O=C(Nc1ccccc1OC(=O)N1CCCCC1)N1CCCCC1 | label 0
CCC1CCCCN1C(=O)Cn1c(=O)oc2ccccc21 (stereo unspecified) | label 1
CCC1CCCCN1CC(=O)c1ccc(OC(F)F)cc1 (stereo unspecified) | label 0
CC(=O)Nc1ccccc1OC(=O)N1CCOCC1 | label 1
Cc1cccc(-n2c(-c3ccc([N+](=O)[O-])cc3)nc3ccccc3c2=O)c1 | label 0
O=c1[nH]c(=S)n(C2CC2)c(O)c1C=NCc1cccnc1 | label 0
C=CCn1c(O)c(C(C)=NCc2ccc3c(c2)OCO3)c(=O)[nH]c1=O | label 0
Cc1ccccc1-n1c(/C=C/c2ccccn2)nc2ccccc2c1=O | label 0

###

Recorded measurements of cell number change, one per entry
# assayDetails: qHTS Assay for Lipid Storage Modulators in Drosophila S3 Cells;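 for cell number change: cells counted by Cell Tracker Red CMTPX staining in the red channel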
# statedConditions: BODIPY lipid droplet fluorescence, 18-24 h, cells fed with added oleic acid; measured here: cell count max response
About 2,100 (0.66%) of roughly 320,000 compounds were called active. Another 53% or so got no clear call; they are omitted. The sample as a whole holds a higher share of actives than the screen did.

compound | cell number change / %
COc1ccc(N2C(=O)NC(=O)/C(=C\c3ccccc3[N+](=O)[O-])C2=O)cc1 | -0.318
O=C1NC(=O)C(Cc2cccs2)C(=O)N1 | -13
O=C(Nc1ccccc1OC(=O)N1CCCCC1)N1CCCCC1 | 3.87
O=c1[nH]c(=S)[nH]c(O)c1N=Nc1ccc(S(=O)(=O)N2CCOCC2)cc1 | 8.05
O=C(NCc1cccnc1)Nc1ccccc1Cl | -20.1
Cc1ccsc1C(=O)C1CCCN(CCO)C1 (configuration not stated) | -5.68
CC1(O)CCN2C(=O)CCc3cccc1c32 (configuration not stated) | -14.6
CNCCc1ccccc1 | -6.21
Cn1c(O)c(C=NC2CCN(Cc3ccccc3)CC2)c(=O)n(C)c1=O | 0.664
CN(Cc1ccccc1)C1CCCN(C(=O)COc2ccccc2Cl)C1 (configuration not stated) | 12
C=CCn1c(O)c(C(C)=NC2CCN(Cc3ccccc3)CC2)c(=O)[nH]c1=O | 4.94
CC(=NC1CCN(Cc2ccccc2)CC1)c1c(O)n(C)c(=O)n(C)c1=O | 4.54

###

# assayDetails: qHTS Assay for Lipid Storage Modulators in Drosophila S3 Cells
# statedConditions: BODIPY lipid droplet fluorescence, 18-24 h, cells fed with added oleic acid; series mostly up to 46.1 µM
Out of some 320,000 compounds screened, about 2,100 (0.66%) were called active. Not shown: some 53% with an inconclusive outcome. Calls follow the shape of the dose curve; as a rule, active = well fitted inhibition curve with a large enough effect in the signal ratio, with a control signal flat (not every such curve was filed as active); inconclusive = small, poorly fitted or top-dose-only effect, or effect the other way, or a change in a side signal; inactive = flat fitted curve, though single readings scatter; the % refers to the signal ratio. Only a selection was taken, and actives are over-represented in it overall.
Classes used: label 1 for active, label 0 for inactive

compound | className
O=C(c1cccc2ccccc12)C1CCCN(Cc2ccon2)C1 (stereo unspecified) | label 0
CN1C(=O)C(Cc2cccs2)C(=O)N(C)C1=O | label 0
CCN(CC)S(=O)(=O)c1cc(NC(=O)C(C)N2CC=C(c3ccccc3)CC2)ccc1C (stereo unspecified) | label 0
CC1=C(C(=O)Nc2ccccc2)SCCO1 | label 1
O=C1NC(=O)N(Cc2cccs2)C(=O)/C1=C/c1ccc(N2CCOCC2)cc1 | label 0
O=C1NC(=O)C(Cc2cccs2)C(=O)N1 | label 1
O=c1[nH]c(=S)[nH]c(O)c1N=Nc1ccc(S(=O)(=O)N2CCOCC2)cc1 | label 0
CC1=C(C(=O)Nc2ccccc2)S(=O)(=O)CCO1 | label 0
Cc1cc(C(=O)Nc2ccccc2)nn1C(C)(C)C | label 0
CCCCn1c(O)c(C(C)=NCCCN(CC)CC)c(=O)[nH]c1=O | label 1
CC(=O)O[C@@H]1[C@H]2CC[C@@H]3[C@]1(C[C@@H](OC(C)=O)[C@@]1(O)C([C@@H]4O[C@@H]4C1(C)C)[C@]3(C)O)C[C@@]2(C)O (stereo partly specified) | label 0

###

# assayDetails: qHTS Assay for Lipid Storage Modulators in Drosophila S3 Cells
# statedConditions: BODIPY lipid droplet fluorescence, 18-24 h, cells fed with added oleic acid; series mostly up to 46.1 µM
In all, about 320,000 compounds went through this assay and about 2,100 (0.66%) were called active. Inconclusive results (about 53%) are left out. The call rests on the fitted dose curve; in most records, active means well fitted inhibition curve with a large enough effect in the signal ratio, with a control signal flat (not every such curve was filed as active); inconclusive means small, poorly fitted or top-dose-only effect, or effect the other way, or a change in a side signal; inactive means flat fitted curve, though single readings scatter; the % refers to the signal ratio. The sample as a whole holds a higher share of actives than the screen did.
Classes used: TRUE for active, FALSE for inactive

compound | className
CN(C)CCN=Cc1c(O)n(C2CCCCCC2)c(=O)[nH]c1=O | FALSE
CCOC(=O)c1cccc(-[n+]2c(-c3ccccc3)cc(-c3ccccc3)cc2-c2ccccc2)c1 | TRUE
CCCCCCn1c(=O)c(C(=O)Nc2ccncc2)c(O)c2ccccc21 | FALSE
O=c1[nH]c(=S)[nH]c(O)c1/C=C1/C=c2ccccc2=N1 | TRUE
O=C1NC(=O)N(c2ccc3c(c2)OCO3)C(=O)/C1=C\c1ccsc1 | FALSE
CCOC(=O)c1cccc([P+](=O)O)c1 | FALSE
O=C(NC1CN2CCC1CC2)c1cccc(Cl)c1 (stereo not drawn) | FALSE
N#Cc1ccc(Cn2cc(C=O)c3ccccc32)cc1 | FALSE
O=C(CN1C(=O)CN=C(c2ccccc2)c2ccccc21)NCc1ccco1 | FALSE
O=P(O)(O)Oc1ccccc1P(=O)(c1ccccc1)c1ccccc1 | FALSE
CC(C(O)c1ccccc1)N(C)CCn1cnc2c1c(=O)n(C)c(=O)n2C (stereo not drawn) | FALSE
Cc1ccc2c(c1)=C/C(=C\c1c(O)[nH]c(=O)[nH]c1=O)C(=O)N=2 | FALSE
COC1CCCCC1NCCc1ccccc1 (stereo not drawn) | FALSE
Cc1ccc(CN2C(=O)CN=C(c3ccccc3)c3ccccc32)cc1 | TRUE
CN1C(=O)/C(=C/c2cccn2-c2ccc3ccccc3c2)C(=O)NC1=S | TRUE
CC1(C)CC(n2[nH]c(=O)c3c2NC(=O)CSC3c2ccc(F)cc2)CCO1 (stereo not drawn) | FALSE
COc1ccc(C(=O)NC(=S)N2C[C@H]3C[C@H](C2)c2cccc(=O)n2C3)cc1 | FALSE
COc1cccc2cc(-c3cc(=O)oc4ccc(OC(=O)N(C)C)cc34)oc12 | FALSE
CN1C(=O)/C(=C\c2ccc(N3CCCCCC3)cc2)C(=O)NC1=S | FALSE
O=C1CN=C(c2ccccc2)c2ccccc2N1Cc1ccc(C(F)(F)F)cc1 | FALSE
Cc1ccc2c(CN3CC=C(c4ccccc4)CC3)cc(=O)oc2c1C | FALSE
O=C(NCc1cccnc1)Nc1ccccc1Cl | FALSE
CCCCCCn1c(=O)c(C(=O)Nc2ncccc2O)c(O)c2ccccc21 | TRUE
